Experiment: AUClast in beagle dog at 0.4 mg/kg, iv measured upto 24 hrs
Assay type: ADME, organism-based, Canis lupus familiaris
Settings: in vivo
assay.endpoint: AUC(0-t) at 24 h (ng·h/mL)

[[record]]
smiles_data = "COc1cc([Se]C(F)(F)F)c(OC)cc1CCN.Cl"
assay_endpoint = "AUC(0-t) at 24 h"
units_label = "ng·h/mL"
readout_value = 366


====

Assay: Metabolic stability in monkey liver S9 fractions assessed as half life
Type: ADME, subcellular, Macaca fascicularis
Conditions: cynomolgus monkey, liver S9 fraction
assay.endpoint: half-life

[[record]]
smiles_data = "COc1cc([Se]C(F)(F)F)c(OC)cc1CCN.Cl"
readout_value = "38 min"


====

Assay: Half life in male Sprague-Dawley rat CSF at 1 mg/kg, iv measured upto 8 hrs by LC-MS/MS analysis
Assay type: ADME, organism-based, Cerebrospinal fluid
assay.endpoint: half-life (h)

[[record]]
smiles_data = "COc1cc([Se]C(F)(F)F)c(OC)cc1CCN.Cl"
assay_endpoint = "half-life"
readout_value = 1.26


====

Target: 5-hydroxytryptamine receptor 2A (Homo sapiens, UniProt P28223)
Sequence (P28223 whole entry): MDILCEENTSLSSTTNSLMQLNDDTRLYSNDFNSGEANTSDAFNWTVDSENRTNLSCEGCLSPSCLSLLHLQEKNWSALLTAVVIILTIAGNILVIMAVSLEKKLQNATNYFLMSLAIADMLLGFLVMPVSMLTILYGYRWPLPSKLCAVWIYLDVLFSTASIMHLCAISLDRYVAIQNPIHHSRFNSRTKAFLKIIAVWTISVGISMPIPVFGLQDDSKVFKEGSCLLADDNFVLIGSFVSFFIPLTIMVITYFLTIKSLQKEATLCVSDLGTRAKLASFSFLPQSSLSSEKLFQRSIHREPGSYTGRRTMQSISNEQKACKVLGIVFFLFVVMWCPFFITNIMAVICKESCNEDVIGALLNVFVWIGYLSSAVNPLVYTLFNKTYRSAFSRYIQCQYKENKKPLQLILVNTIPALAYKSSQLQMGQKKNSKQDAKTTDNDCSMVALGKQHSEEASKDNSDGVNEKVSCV
Assay: Displacement of [3H]LSD from human 5-HT2A receptor expressed in HEK293 cell membrane incubated for 90 mins by microbeta liquid scintillation counting method
Format: cell membranes
Settings: read-out: Ki
log10(Ki) values by entry
assay.endpoint: log10(Ki) (log10 of the value in nM)

[[record]]
molecule = "COc1cc(S(=O)(=O)CF)c(OC)cc1CCN.Cl"
assay_endpoint = "log10(Ki)"
readout_value = 0.77

[[record]]
molecule = "COc1cc(OCCCF)c(OC)cc1CCN"
assay_endpoint = "log10(Ki)"
readout_value = 3.21

[[record]]
molecule = "COc1cc(SSC(F)(F)F)c(OC)cc1CCN.Cl"
assay_endpoint = "log10(Ki)"
readout_value = 1.89

[[record]]
molecule = "COc1cc(S(=O)(=O)C(F)F)c(OC)cc1CCN.Cl"
assay_endpoint = "log10(Ki)"
readout_value = 1.04

[[record]]
molecule = "COc1cc(SCC(F)F)c(OC)cc1CCN"
assay_endpoint = "log10(Ki)"
readout_value = 2.16

[[record]]
molecule = "COc1cc([Se]C(F)(F)F)c(OC)cc1CCN.Cl"
assay_endpoint = "log10(Ki)"
readout_value = 0.51

[[record]]
molecule = "COc1cc(OCCC(F)(F)F)c(OC)cc1CCN"
assay_endpoint = "log10(Ki)"
readout_value = 2.68

[[record]]
molecule = "COc1cc(C2CCCC2)c(OC)cc1CCN"
assay_endpoint = "log10(Ki)"
readout_value = 2.13

[[record]]
molecule = "COc1cc(OCCC(F)F)c(OC)cc1CCN"
assay_endpoint = "log10(Ki)"
readout_value = 2.59

[[record]]
molecule = "COc1cc(SC(F)(F)F)c(OC)cc1CCNCC1CC1"
assay_endpoint = "log10(Ki)"
readout_value = 0.95

[[record]]
molecule = "COc1cc(SCCCCF)c(OC)cc1CCN"
assay_endpoint = "log10(Ki)"
readout_value = 1.67

[[record]]
molecule = "COc1cc(SCC(F)(F)C(F)F)c(OC)cc1CCN.Cl"
assay_endpoint = "log10(Ki)"
readout_value = 1.53

[[record]]
molecule = "COc1cc([S+]([O-])C(F)(F)F)c(OC)cc1CCN.Cl (stereo unspecified)"
assay_endpoint = "log10(Ki)"
readout_value = 1.28

[[record]]
molecule = "COc1cc(SCCC(F)F)c(OC)cc1CCN.Cl"
assay_endpoint = "log10(Ki)"
readout_value = 1.36

[[record]]
molecule = "COc1cc(SCC#N)c(OC)cc1CCN"
assay_endpoint = "log10(Ki)"
readout_value = 1.56

[[record]]
molecule = "COc1cc(CCN)cc(OC)c1SC(F)(F)F"
assay_endpoint = "log10(Ki)"
readout_value = 1.65

[[record]]
molecule = "COc1cc([S+]([O-])C(F)F)c(OC)cc1CCN.Cl (stereo unspecified)"
assay_endpoint = "log10(Ki)"
readout_value = 1.43

[[record]]
molecule = "C#CCCCSc1cc(OC)c(CCN)cc1OC"
assay_endpoint = "log10(Ki)"
readout_value = 0.36

[[record]]
molecule = "COc1cc(SSC(C)(C)C)c(OC)cc1CCN.Cl"
assay_endpoint = "log10(Ki)"
readout_value = 1.77

[[record]]
molecule = "COc1cc(S(=O)(=O)C(F)(F)F)c(OC)cc1CCN.Cl"
assay_endpoint = "log10(Ki)"
readout_value = 0.28

[[record]]
molecule = "COc1cc(SCCC(F)(F)F)c(OC)cc1CCN.Cl"
assay_endpoint = "log10(Ki)"
readout_value = 1.00

